assay: Ligand binding assay by ANS displacement, THC; details: Table 3; 2 μM protein, 20 μM ANS, 33 μM ligand, 20° C.

{"Molecule": "SEQ ID NO. 121: odorant-binding protein 1a-like, Mus caroli (Ryukyu mouse) (protein, listed as Mus caroli) MVKFLLLELAFGLAHAQMYGPWKTIAIAADNVDKMEISGELRLYFHQITCEKECKKMNVTFYVDENGQCSLTTITGYLQDDGKTYRSQFQGDNHYATVRTTPENIVFYSENVDRAGRKTKLVYVVGKNGSGSLK", "Purification Status (binding to THC)": "Binds to THC"}
{"Molecule": "SEQ ID NO. 148: Odorant-binding protein, partial, Heterocephalus glaber (naked mole-rat) (protein, Heterocephalus glaber) MINGDWCSIYIAADNVEKIEERGELRAYFCHIECQDECRNLSGGDRIMRNKHCCVGLSFRLDGVCQEFTVVGVKDEKSGVYITDYVGKNYFTVVESTEYITLFSNIIVDEKGTKMNVVLVAAKRDSLTEKEKQKFAQLAEEKGIPTENIRNVIAT", "Purification Status (binding to THC)": "Binds to THC"}

The origin of these recorded values is patent US20220151977A1.
